All values here come from PubChem BioAssay (NCI).

Reported values of TGI for individual entries
Test system: NCI-H522 lung
Assay: NCI tumour cell line growth inhibition, 48 h

| molecule | comparative_sign | TGI (µM) |
| --- | --- | --- |
| COc1ccc2c(c1)C(=O)c1c-2c(N2CCN(C(=O)CNCCNCCO)CC2)nc2ccccc12 | = | 4.08 |
| COc1cccc2c1C(=O)c1c(O)c3c(c(O)c1C2=O)C[C@](O)(C(=O)CO)C[C@H]3O[C@@H]1C[C@@H](NC(=O)CCCCCN(C)C2(c3ccc(F)cc3)CC3CCC2C3)[C@H](O)[C@@H](C)O1 (stereo not given in full) | = | 1.57 |
| COc1cc2c(c(OC)c1OC)-c1ccc(SC)c(=O)cc1C(NC=O)CC2 (stereo not given) | < | 0.01 |
| Cc1ccccc1N1C(=O)C2C=CC(n3[nH]c(=O)n(Cc4ccccc4)c3=O)CC2C1=O (stereo not given) | > | 100 |
| COc1cc(NS(C)(=O)=O)ccc1Nc1c2ccccc2nc2c1[nH]c1ccc(NC3OC(CO)C(O)C(O)C3O)cc12 (stereo not given) | = | 0.387 |
